tgt: Carboxy-terminal domain RNA polymerase II polypeptide A small phosphatase 1 (Homo sapiens) (UniProt Q9GZU7)
Sequence (Q9GZU7 76-261 limits assumed): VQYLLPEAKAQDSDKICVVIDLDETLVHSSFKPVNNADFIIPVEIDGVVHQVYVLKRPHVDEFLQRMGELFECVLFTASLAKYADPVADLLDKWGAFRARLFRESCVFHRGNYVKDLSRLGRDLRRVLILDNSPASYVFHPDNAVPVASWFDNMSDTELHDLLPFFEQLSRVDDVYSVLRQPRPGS
run-description: Scp-1 phosphatase inhibitors, primary screen, biochemical, colorimetric, uHTS (AID 493091);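 note: plate controls were DMSO wells with enzyme for no effect and wells lacking enzyme for full effect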
condition-context: Recombinant Scp1, phosphopeptide, malachite green phosphate absorbance; at 20 µM; active compounds read high
About 3,000 (0.88%) of roughly 340,000 compounds were called active. For the sample, actives were picked, then their nearest neighbours and some compounds at random.
Form field: inhibition (one value per entry).
Numeric only. Scale: %

Solved cases below.
>>> experimental_result("C[C@H](CO)N1C[C@H](C)[C@H](CN(C)C(=O)Nc2ccc(C(F)(F)F)cc2)Oc2c(NC(=O)c3ccncc3)cccc2C1=O")
88
>>> experimental_result("O=C(NCCCc1ccccc1)C1CCC(CNc2c(N3CCCCC3)c(=O)c2=O)CC1 (stereo not given)")
-5.39

Query :: Name the reported inhibition value associated with the molecule CC1C(=O)C(C)C(c2ccc(O)cc2)NC1c1ccc(O)cc1 (stereo not given)
Result :: -7.74

Query :: Name the reported inhibition value associated with the molecule CCOc1ccc(OCC)c(NC(=O)CCS(=O)(=O)c2ccc(C)cc2)c1
Result :: -14.2

Query :: Name the reported inhibition value associated with the molecule Cc1ccc(NC(=O)c2cc(-c3ccc(C)o3)nc3ccccc23)nc1
Result :: 67.5

Query :: Name the reported inhibition value associated with the molecule Cc1ccc(S(=O)(=O)CCC(=O)OCC(=O)NCCc2ccc(S(N)(=O)=O)cc2)cc1
Result :: -5.47

Query :: Name the reported inhibition value associated with the molecule COc1ccc(Cl)cc1NC(=O)CCS(=O)(=O)c1cc2c(cc1C)NC(=O)CO2
Result :: -1.24

###

tgt: Carboxy-terminal domain RNA polymerase II polypeptide A small phosphatase 1 (Homo sapiens) (UniProt Q9GZU7)
run-description: Scp-1 phosphatase inhibitors, primary screen, biochemical, colorimetric, uHTS (AID 493091)
condition-context: Recombinant Scp1, phosphopeptide, malachite green phosphate absorbance; at 20 µM; active compounds read high
About 3,000 (0.88%) of roughly 340,000 compounds were called active. This excerpt belongs to a sample that is enriched for actives.
measurement-type: inhibition

Solved cases below.
>>> experimental_result("CC1=NN(C(=O)CCc2ccccc2O)C(O)(C(F)(F)F)C1 (stereo not drawn)")
"63% (active)"
>>> experimental_result("CC(=O)c1ccc(NC(=O)C(C)N(C)CC(=O)Nc2ccccc2Cl)cc1 (stereo not drawn)")
"9.97% (inactive)"
>>> experimental_result("Cc1ccc(-c2c3c(=O)n(C)c(=O)n(C)c3cn2-n2cnnc2)cc1")
"-6% (inactive)"
>>> experimental_result("Nc1nc(NCC(=O)O)nc(N2CCCCCC2)c1[N+](=O)[O-]")
"6.19% (inactive)"
>>> experimental_result("NC(=O)C1=C[C@H](c2csc3ccccc23)C[C@H](OCc2ccc(CO)cc2)O1")
"-0.48% (inactive)"
>>> experimental_result("O=C(O)COCC(=O)NCc1csc2ccc(Cl)cc12")
"11.2% (inactive)"
>>> experimental_result("O=C(c1ccc(F)cc1)N1CCCC(C(=O)N2CCCCC2)C1 (stereo not drawn)")
"-6.52% (inactive)"
>>> experimental_result("O=c1ccc2c(-c3ccccc3S(=O)(=O)O)c3ccc(O)c(O)c3oc-2c1O")
"64.1% (active)"
>>> experimental_result("CCOC(=O)C1CCCN(C(=O)CN(c2ccc(OC)cc2)S(=O)(=O)c2c(C)noc2C)C1 (stereo not drawn)")
"57.4% (active)"
>>> experimental_result("COc1c(Br)cc2c(C)c(C(=O)N3CCOCC3)oc2c1Br")
"-4.18% (inactive)"

Query :: Name the reported inhibition value associated with the compound COc1ccc(CCNS(=O)(=O)c2cn(C)nc2C)cc1
Result :: 0.34% (inactive)

Query :: Name the reported inhibition value associated with the compound CCCCCN1CC(O)=C(c2nc(-c3ccc(Cl)cc3)cs2)C1=N
Result :: 94.9% (active)

Query :: Name the reported inhibition value associated with the compound N#CCc1c(C#N)c(N)nc(N2CCCC2)c1C#N
Result :: -4.92% (inactive)

Query :: Name the reported inhibition value associated with the compound O=C(COc1ccccc1)Nc1ccc(N2CCN(C(=O)c3cccs3)CC2)cc1
Result :: -5.15% (inactive)

Query :: Name the reported inhibition value associated with the compound CCOC(=O)C1CCCN(C(=O)/C=C/c2ccc(OC)cc2)C1 (stereo not drawn)
Result :: 0.29% (inactive)

Query :: Name the reported inhibition value associated with the compound CN(CC(=O)Nc1ccc(Cl)cc1)C(=O)CNC(=O)c1ccc2ccccc2c1
Result :: -10% (inactive)

###

tgt: Carboxy-terminal domain RNA polymerase II polypeptide A small phosphatase 1 (Homo sapiens) (UniProt Q9GZU7)
run-description: Scp-1 phosphatase inhibitors, primary screen, biochemical, colorimetric, uHTS (AID 493091);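 note: plate controls were DMSO wells with enzyme for no effect and wells lacking enzyme for full effect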
condition-context: Recombinant Scp1, phosphopeptide, malachite green phosphate absorbance; at 20 µM; active compounds read high
Hit rate of the full screen: of about 340,000 compounds, about 3,000 (0.88%) were called active. Shown is part of a subset that was picked to be rich in actives.
measurement-type: inhibition (%)
Numeric only. Scale: %

Solved cases below.
>>> experimental_result("CC(C)=CCN1CCN(Cc2cc3ccccc3[nH]2)CC1CCO (configuration not stated)")
-3.55
>>> experimental_result("Cc1ccc(CN2CCN(c3ccccc3Cl)CC2)o1")
51
>>> experimental_result("O=C(Nc1cc(S(=O)(=O)N2CCCCC2)ccc1Cl)C1COc2ccccc2O1 (configuration not stated)")
55.3
>>> experimental_result("O=C(CN1C(=O)COc2ccc(Cl)cc21)N1CCOCC1")
3.98
>>> experimental_result("COc1ccc2[nH]c(C(=O)N3CCN(C)CC3)c(C)c2c1")
-4.55
>>> experimental_result("CC(Oc1ccc(-c2ccccc2)c(F)c1)c1ccn(S(=O)(=O)c2cccc3ccccc23)n1 (configuration not stated)")
-13.9
>>> experimental_result("C=CCOc1c2ccc(C(=O)N(CC)c3ccc(OC)cc3)cc2nn1C")
-2.27
>>> experimental_result("O=C(N/N=C/c1ccc2c(c1)OCO2)C(=O)N1CCCC1")
-6.72

Query :: Name the reported inhibition value associated with the compound Cc1ccc(N=Cc2c(O)cc(C)oc2=O)c(C)c1
Result :: -1.31

Query :: Name the reported inhibition value associated with the compound Cc1ccc(C(=O)Nc2sc(Cc3ccc4c(c3)OCO4)c(C)c2C(N)=O)cc1
Result :: -8.44

Query :: Name the reported inhibition value associated with the compound COc1ccc2[nH]c(=S)cc(C)c2c1
Result :: -4.32

Query :: Name the reported inhibition value associated with the compound CC(C)c1ccc(NC(=S)NNc2ccc(Cl)c(C(=O)O)c2)cc1
Result :: 54.9

Query :: Name the reported inhibition value associated with the compound O=c1c(Cl)c(NCc2ccc(F)cc2Cl)cnn1C12CC3CC(CC(C3)C1)C2
Result :: 17.9

Query :: Name the reported inhibition value associated with the compound COc1ccc2[nH]c3c(C)c4cc[n+](C)cc4c(C)c3c2c1
Result :: 64.5

Query :: Name the reported inhibition value associated with the compound O=C(c1ccc2c(c1)OCO2)N1CCN(C(=O)c2ccco2)CC1
Result :: -10.7

###

tgt: Carboxy-terminal domain RNA polymerase II polypeptide A small phosphatase 1 (Homo sapiens) (UniProt Q9GZU7)
run-description: Scp-1 phosphatase inhibitors, primary screen, biochemical, colorimetric, uHTS (AID 493091);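 note: plate controls were DMSO wells with enzyme for no effect and wells lacking enzyme for full effect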
condition-context: Recombinant Scp1, phosphopeptide, malachite green phosphate absorbance; at 20 µM; active compounds read high
Screen size: about 340,000 compounds; about 3,000 (0.88%) were called active. This excerpt belongs to a sample that is enriched for actives.
Form field: inhibition (one value per entry).
Numeric only. Scale: %

Solved cases below.
>>> experimental_result("COc1ccccc1N(C)C(=O)c1cc(S(=O)(=O)N2CCc3ccccc32)cn1C")
-4.84
>>> experimental_result("CC1(C)CCc2nc(SCc3ccccc3)c(C#N)cc2C1")
-11.5
>>> experimental_result("CCOC(=O)C1(S(=O)(=O)c2ccc(Cl)cc2)CCN(Cc2ccccc2)CC1")
-6.96
>>> experimental_result("CCN(CC)S(=O)(=O)c1cccc(-c2n[nH]c(=S)n2/N=C/c2ccc(C(=O)OC)cc2)c1")
-7.1

Here is the next item to consider.
Query :: Name the reported inhibition value associated with the compound COc1cccc(NC(=O)Cn2cnc3sc(C)c(S(=O)(=O)N4CCN(C)CC4)c3c2=O)c1
Result :: -1.94

###

Form field: inhibition (one value per entry).
tgt: Carboxy-terminal domain RNA polymerase II polypeptide A small phosphatase 1 (Homo sapiens) (UniProt Q9GZU7)
run-description: Scp-1 phosphatase inhibitors, primary screen, biochemical, colorimetric, uHTS (AID 493091);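 note: plate controls were DMSO wells with enzyme for no effect and wells lacking enzyme for full effect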
condition-context: Recombinant Scp1, phosphopeptide, malachite green phosphate absorbance; at 20 µM; active compounds read high
In all, about 340,000 compounds went through this assay and about 3,000 (0.88%) were called active. The full list was thinned out, with actives kept by preference.

Query :: Name the reported inhibition value associated with the compound COc1ccccc1C(C)NC(=O)Cc1ccsc1 (stereo not given)
Result :: 1.45% (inactive)

Query :: Name the reported inhibition value associated with the compound COc1ccc(CN2CCC(n3nccc3NC(=O)CCCc3ccccc3)CC2)cc1C
Result :: 6.87% (inactive)

Query :: Name the reported inhibition value associated with the compound CCN(CC)C(=O)Oc1ccc(OC(=O)N(CC)CC)cc1
Result :: 7.37% (inactive)

Query :: Name the reported inhibition value associated with the compound C=C1c2c(Cl)ccc(O)c2C(O)=C2C(=O)[C@]3(O)C(O)=C(C(N)=O)C(=O)[C@@H](N(C)C)[C@@H]3[C@@H](O)C12 (stereo not given in full)
Result :: 65.5% (active)

Query :: Name the reported inhibition value associated with the compound C/C(CC(=O)Nc1ccc(Cl)cc1)=N\NC(=O)C(=O)NCCO
Result :: -2.46% (inactive)
